# assayedTarget: HCV E1E2 antigen, isolate UKN4.21.16 (hepatitis C virus, isolate UKN4.21.16)
# experimentDescription: ELISA, Fab on E1E2 antigen
measuredProperty: OD 450 nm (OD 450 nm)
The answer is to be given in OD 450 nm; state only the numeric part.

Endpoint output: OD 450 nm of Fab R1 (Fab, V domains shown) VH: VQLLEQSGAEVKKPGASVKVSCKASGYTFSIYGVAWVRQAPGQGLEWMGWISPQNGDTHSPQKFQGRLTMTTDTSTSTAYMELRSLRSDDTAVYFCARDYGVNFGGGSEHNLDYWGRGTRVTVSS VL: ELTQSPLSLPVTPGEPASISCRSSYSLLHINGYKYLDWYLQRPGQSPQLLIYLGSNRAPGVPDRFSGSGSGTSFTLKISRVEAEDVGVYYCMQSLQAPWTFGQGTKVEMKR . Value?
0.01

Endpoint output: OD 450 nm of Fab O1 (Fab, V domains shown) VH: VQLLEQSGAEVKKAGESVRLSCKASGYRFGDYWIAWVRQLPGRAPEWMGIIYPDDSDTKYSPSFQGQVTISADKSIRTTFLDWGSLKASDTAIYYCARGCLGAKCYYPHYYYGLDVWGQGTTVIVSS VL: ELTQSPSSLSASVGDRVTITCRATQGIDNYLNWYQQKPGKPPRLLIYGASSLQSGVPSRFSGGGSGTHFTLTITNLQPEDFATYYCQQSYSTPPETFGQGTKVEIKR . Value?
0.57

Endpoint output: OD 450 nm of Fab Q2 (Fab, V domains shown) VH: VQLLEQSGAEVKKPGASVKVSCKASGYTFTNNGLNWVRQAPGQGLEWMGWISPYNGDTDFAHKFQGRISMTTDTSTNTAYMELRSLRSDDTAVYYCARDRNSAGGTWLFRDPPPGSTFFDSWGQGSLVTVSS VL: ELTQSPASLSLSPGGSATLACRASRGVNSNLAWYHQKPGQAPRLLIYSASTRATGIPGRFSGSGFGTEFTLTINNLQSDDFGVYYCQQYDDTPQITFGQGTRLDIKR . Value?
0.17
